Parameter: inhibition. Scope: all listed entries.
# STUDY_SYSTEM: Gag-Pol polyprotein (Human immunodeficiency virus type 1 group M subtype B (isolate HXB2))
# PROTOCOL_SUMMARY: HIV-1 RT RNase H inhibitor potency, dose response, biochemical, probe assessment (AID 652)
# TEST_SETTINGS: HIV-1 RT RNase H enzymatic assay, inhibition, at 50 µM, stronger effect = higher value
Supply the numeric figure in %, leaving out any unit text.

1. O=C(NCc1ccco1)c1cc2cc3ccc(Cl)cc3nc2o1
91.6
2. CCOC(=O)c1c(C)[nH]c(C(=O)CSc2nc3ccccc3o2)c1C
93.7
3. O=c1c2ccccc2sn1-c1cc(S(=O)(=O)N2CCOCC2)ccc1N1CCOCC1
84.4
4. Cc1noc(C)c1CSc1nc2cc(S(=O)(=O)N3CCOCC3)ccc2o1
88.3
5. CC(C)(C)C1=Nn2c(nnc2-c2ccccn2)SC1
80.5
6. CCc1ccc(NC(=O)CSc2nc3cc(C(=O)OC)ccc3c(=O)n2Cc2ccco2)cc1
94.7

Any idea what its inhibition is? The compound is O=C(O)c1ccc2c(c1)NC(=O)C(N1CCCC1)S2 (centres undefined)
75.8

Any idea what its inhibition is? The compound is `Cc1ccnc(-n2sc3ccccc3c2=O)n1`
96.7

Any idea what its inhibition is? The compound is `O=C(NCCc1ccccc1)c1c(O)c2cccc3c2n(c1=O)CC3`
67.7

Any idea what its inhibition is? The compound is O=S(=O)(/N=S1/CC=CCN1S(=O)(=O)c1ccccc1)c1ccccc1 (centres undefined)
69

Any idea what its inhibition is? The compound is `Cc1cc(C)c(C#N)c(=N)o1`
83

Any idea what its inhibition is? The compound is `CCOC(=O)c1sc(NC(=O)CSc2nnc(Cc3ccccc3)o2)c(C#N)c1C`
98.3

Any idea what its inhibition is? The compound is `Fc1ccc(-c2ccc(-c3nn4c(-c5ccco5)nnc4s3)o2)cc1`
88

Any idea what its inhibition is? The compound is `CC1=C(SCCC#N)S/C(=C2\SC(C)=C(SCCC#N)S2)S1`
97.5

Any idea what its inhibition is? The compound is `CCCN(CCC)S(=O)(=O)c1ccc(C(=O)Nc2nnc(-c3cccc(OC)c3)o2)cc1`
87.4

Any idea what its inhibition is? The compound is `c1ccc2[nH]c(SN3CCOCC3)nc2c1`
74.2

Any idea what its inhibition is? The compound is `O=C(c1ccc2c3c(cccc13)C(=O)N(O)C2=O)N1CCCCC1`
91.7

Any idea what its inhibition is? The compound is CC(Cc1ccc(O)c(O)c1)C(C)Cc1ccc(O)c(O)c1 (centres undefined)
99

Any idea what its inhibition is? The compound is `c1ccc(Cc2nn3c(Cn4cnc5ccccc54)nnc3s2)cc1`
91.2

Any idea what its inhibition is? The compound is `CCOC(=O)CSc1nc2cc(C(=O)NCc3ccco3)ccc2c(=O)n1C1CCCCC1`
89

Any idea what its inhibition is? The compound is `O=C(Nc1ccc2nc(-c3ccco3)c(-c3ccco3)nc2c1)N1CCCCCC1`
97

These data points were gathered from PubChem BioAssay AID652.
